Task for the reader: assign each of the following molecules its reported IC50 at 48 h.
assay: GSK_TCAKS: pIC50 HepG2 human cell line viability assay using luminiscence. […] Seeding density was checked to ensure that new mono-layers were not more than 50% confluent at the time of harvesting. Cell suspension was added to 500 mL of the same medium at a final density of 1.2 * 10^5 cells/mL. This cell suspension was dispensed (25 uL, 3000 cells per well) into 384-well clear-bottom plates using a Multidrop Combi dispenser. Prior to addition of the cell suspension, the screening compounds (250 nL) were pre-dispensed into the plates with an Echo liquid handler. Plates were incubated for 48 h at 37C, 5% CO2. After incubation, plates equilibrated at room temperature for 30 min before proceeding to develop the luminescent signal. The signal developer, CellTiter-Glo Reagent, was allowed to equilibrate at room temperature for 30 min and added to the plates (25uL per well) using a Multidrop Combi dispenser. Plates were left for 10 min at room temperature for stabilization and then read using a ViewLux.; format: toxicity, cell-based

[
  {
    "molecule": "O=C(NC1CCN(C2Cc3ccc(NS(=O)(=O)c4cc(F)cc(F)c4)cc3C2)CC1)C1CC1 (stereo unspecified)",
    "result": "> 100 µM"
  },
  {
    "molecule": "Fc1ccc(Nc2nc(-c3ccccn3)cs2)cc1",
    "result": "> 100 µM"
  },
  {
    "molecule": "Nc1nccc(-c2csc(Nc3ccc(Cl)cc3)n2)n1",
    "result": "> 100 µM"
  },
  {
    "molecule": "CN(C)c1ncc(-c2cncn2CCOc2ccc(Cl)cc2)cn1",
    "result": "> 100 µM"
  },
  {
    "molecule": "CCc1cc(C(=O)Nc2nccn2-c2ccccc2)cs1",
    "result": "> 100 µM"
  },
  {
    "molecule": "O=C(Nc1nc(-c2ccccn2)cs1)c1ccccc1-n1cnnn1",
    "result": "1.58 µM"
  },
  {
    "molecule": "Cc1cnc(Nc2cc(Cc3ccccc3)nc(N[C@H]3CC[C@H](O)CC3)n2)s1",
    "result": "25.1 µM"
  },
  {
    "molecule": "Cc1nc(N2CC(C)OC(C)C2)sc1C(=O)Nc1ccc2c(c1)OCO2 (stereo unspecified)",
    "result": "> 100 µM"
  },
  {
    "molecule": "C=CCn1nc([N+](=O)[O-])nc1Oc1ccc(Cl)cc1Cl",
    "result": "> 100 µM"
  },
  {
    "molecule": "CN1C(=O)c2ccccc2Sc2ccc(NC(=O)NCc3ccco3)cc21",
    "result": "> 100 µM"
  }
]

# context switch: different molecule, same IC50 at 48 h
Fill blank: measured IC50 at 48 h of the molecule CCOc1ccc(OCC(=O)N2c3ccccc3CC2C(=O)NC)cc1 (stereo unspecified) is ____. > 100 µM

====

Provide the recorded pIC50 for the entries that follow.
tested on: Leishmania donovani; experiment: GSK_TCAKS: pIC50 Leishmania donovani Imaging: Amastigotes/Macrophages. Assay plates (384-well) were prepared by adding 250nL of compound to each well. For single shot assay, the final compound concentration was 5 uM. […] Automated image analysis was performed with a script developed on Acapella High Content Imaging and Analysis Software (PerkinElmer). Output: Average number of amastigotes per macrophage cell were reported for each well.; format: functional, organism-based, Homo sapiens; conditions: THP-1
Numbers only, as −log10 of the molar value.

A selection of reference data follows.
[
  {
    "compound": "CC(C)(C)CC(=O)NCCc1csc(-c2ccc(F)cc2)n1",
    "pIC50": 4.80
  },
  {
    "compound": "CS(=O)(=O)c1ccc(Nc2nccc(Nc3n[nH]c4ccc(F)cc34)n2)c(F)c1",
    "pIC50": 5.00
  },
  {
    "compound": "O=c1oc2ccccc2n1C1CCN(Cc2ccccc2-c2cccnc2)CC1",
    "pIC50": 5.20
  },
  {
    "compound": "Cc1cc2cc(CNc3ccc4c(c3)OCO4)c(=O)n(CCO)c2cc1C",
    "pIC50": 6.60
  },
  {
    "compound": "Cc1cnc(Nc2cc(Cc3ccccc3)nc(N[C@H]3CC[C@H](O)CC3)n2)s1",
    "pIC50": 7.50
  }
]

Provide each entry's pIC50 from the list below.
1. CC(c1cc(Cl)cc(Cl)c1)N(C)c1ncc2c(N)nc(N)nc2n1 (centres undefined)
2. Nc1nccc(-c2csc(Nc3ccc(Cl)cc3)n2)n1
3. CN(Cc1nnnn1C1CCN(Cc2ccc(-n3ccnc3)cc2)CC1)c1ccc(F)cc1F
4. Cc1cc(C#N)c([N+](=O)[O-])cc1Br

[6.60, 6.00, 4.80, 4.50]
